Provenance of the data: PubChem BioAssay (NCI)

System: RXF 393 renal
PROCEDURE_TEXT: NCI-60 one-dose screen, 48 h
CONDITION_NOTES: 10 µM unless noted
About 83,000 compounds went through this panel and 20% of them were active in at least one assay; those are over-represented in the sample as a whole. Activity calls are given as the source filed them. How the source made its calls: active means growth percent below 10; inactive means the rest.
Result category, one only: active, inactive

**Q:** Dear colleague, could you share the recorded outcome for O=C(O)c1ccc2c(c1Cl)C(=O)c1ccccc1C2=O when you have a moment?
**A:** inactive

**Q:** Dear colleague, could you share the recorded outcome for O=C(c1ccccc1)N1N=C(c2ccccc2)CC1c1nnc2n(Cc3ccccc3)c(=O)c3c4c(sc3n12)CCCC4 (stereo not given) when you have a moment?
**A:** inactive

**Q:** Dear colleague, could you share the recorded outcome for O=C(/C=C/c1c(Cl)nc2sccn12)c1ccc(F)c(F)c1 when you have a moment?
**A:** inactive

**Q:** Dear colleague, could you share the recorded outcome for NS(=O)(=O)c1cnccc1Sc1ccncc1S(N)(=O)=O when you have a moment?
**A:** inactive

**Q:** Dear colleague, could you share the recorded outcome for Cc1ccc2[nH]c(=O)c3c(c2c1)OC(N)=C(C#N)C31c2cc(Br)ccc2-c2ccc(Br)cc21 when you have a moment?
**A:** inactive

**Q:** Dear colleague, could you share the recorded outcome for Cc1ccc(Nc2ccc(Nc3ccc(C)cc3)c3c2C(=O)c2cccc(O)c2C3=O)cc1 when you have a moment?
**A:** inactive

**Q:** Dear colleague, could you share the recorded outcome for C[n+]1cc2c3c(ccc2c2ccc4cc5c(cc4c21)OCO5)OCO3 when you have a moment?
**A:** active

**Q:** Dear colleague, could you share the recorded outcome for COc1ccc(CN2C(=O)C(Cl)=C(Nc3cccc(C(F)(F)F)c3)C2=O)cc1 when you have a moment?
**A:** inactive

**Q:** Dear colleague, could you share the recorded outcome for COc1cc(-c2nc(N3CCN(C)CC3)c3ccccc3n2)cc(OC)c1OC when you have a moment?
**A:** inactive

**Q:** Dear colleague, could you share the recorded outcome for CN(C)CC1=NC2SC=C(c3ccccc3)C2C(=O)N1CC#N (stereo not given) when you have a moment?
**A:** inactive

**Q:** Dear colleague, could you share the recorded outcome for COc1cc(Cn2ncc3ccc(NC(=O)c4cc5ccccc5oc4=N)cc32)cc(OC)c1OC when you have a moment?
**A:** inactive

**Q:** Dear colleague, could you share the recorded outcome for COc1cc(C(=O)c2cc(C)c3[nH]c4ccc(Cl)cc4c3c2C)cc(OC)c1OC when you have a moment?
**A:** inactive

**Q:** Dear colleague, could you share the recorded outcome for CN(C)c1ccc(/C=C/C(=O)c2cccc(Nc3nc(Nc4ccccc4)nc(Nc4ccccc4)n3)c2)cc1 when you have a moment?
**A:** inactive

**Q:** Dear colleague, could you share the recorded outcome for O=C1OC(c2nc3ccccc3s2)=C/C1=C\c1ccc(O)cc1 when you have a moment?
**A:** inactive

**Q:** Dear colleague, could you share the recorded outcome for COC(=O)[C@]12CC[C@@H](C)[C@H](C)[C@@H]1C1=CC[C@@H]3[C@@]4(C)C(C=O)=C[C@@](C)(COS(C)(=O)=O)[C@@H]4C(=O)C[C@@]3(C)[C@]1(C)CC2 when you have a moment?
**A:** inactive

**Q:** Dear colleague, could you share the recorded outcome for CC(C)Sc1nc(NNC(N)=S)c(C#N)c(-c2ccc(F)cc2)n1 when you have a moment?
**A:** inactive

**Q:** Dear colleague, could you share the recorded outcome for CC(=O)n1c(-c2ccc(Cl)cc2)nc2c(c1=O)C(c1ccc(Cl)cc1)c1sc3c(Cl)cccc3c1O2 (stereo not given) when you have a moment?
**A:** active

**Q:** Dear colleague, could you share the recorded outcome for CSc1n(Cc2ccc3ccccc3c2)c(C)c[n+]1Cc1ccc2ccccc2c1 when you have a moment?
**A:** active

**Q:** Dear colleague, could you share the recorded outcome for O=C1/C(=C/c2ccccc2)CCc2nc3ccccc3c(/C=C/c3ccc(Cl)cc3)c21 when you have a moment?
**A:** inactive

**Q:** Dear colleague, could you share the recorded outcome for CC/C=C\CCC/C=C1/C(=O)C=C[C@@H]1C/C=C\CCCC(=O)O when you have a moment?
**A:** inactive

**Q:** Dear colleague, could you share the recorded outcome for Cc1ccc(S(=O)(=O)N/N=C\c2cc(Cl)ccc2O)cc1 when you have a moment?
**A:** inactive

**Q:** Dear colleague, could you share the recorded outcome for COc1ccc(-c2nc3sccn3c2-c2cc(-c3cc(OC)c(OC)c(OC)c3)on2)cc1 when you have a moment?
**A:** inactive

**Q:** Dear colleague, could you share the recorded outcome for O=C1c2cccc(NCCN=Cc3cc([N+](=O)[O-])ccc3O)c2C(=O)c2c(NCCN=Cc3cc([N+](=O)[O-])ccc3O)cccc21 when you have a moment?
**A:** inactive

**Q:** Dear colleague, could you share the recorded outcome for c1coc(-c2c3ccc(=[N+]4CCCCC4)cc-3oc3cc(N4CCCCC4)ccc23)c1 when you have a moment?
**A:** active

**Q:** Dear colleague, could you share the recorded outcome for CCc1c2c(nc3ccc(OC(=O)NCc4ccc(B5OC(C)(C)C(C)(C)O5)cc4)cc13)-c1cc3c(c(=O)n1C2)COC(=O)[C@]3(O)CC when you have a moment?
**A:** active

**Q:** Dear colleague, could you share the recorded outcome for COc1ccc(Cl)cc1NC(=O)C(Br)C(Br)C(=O)O (stereo not given) when you have a moment?
**A:** inactive

**Q:** Dear colleague, could you share the recorded outcome for CCN(CC)CCn1nc2c3c(cccc3c1=O)-c1ccccc1-2 when you have a moment?
**A:** inactive

**Q:** Dear colleague, could you share the recorded outcome for COc1ccc(OC)c2c1[nH]c(=O)c1c3ncccc3cn21 when you have a moment?
**A:** inactive

**Q:** Dear colleague, could you share the recorded outcome for COc1ccc2oc3c(C)c4c(c(C)c3c2c1)C(=O)N(Cc1ccccc1)C4=O when you have a moment?
**A:** inactive

**Q:** Dear colleague, could you share the recorded outcome for C=C1C(=O)O[C@H]2[C@H]1CC/C(COC(=O)C(=O)c1cn(C)c3ccc(OC)cc13)=C\CC[C@@]1(C)O[C@@H]21 when you have a moment?
**A:** active

**Q:** Dear colleague, could you share the recorded outcome for N#CC1=C(/N=C/c2ccccc2)Oc2c(ccc3ccccc23)C1c1ccccc1 (stereo not given) when you have a moment?
**A:** inactive

**Q:** Dear colleague, could you share the recorded outcome for CN(Cc1cnc2nc(N)nc(N)c2n1)c1ccc(C(=O)N[C@@H](CCc2nn[nH]n2)c2nn[nH]n2)cc1 when you have a moment?
**A:** inactive

**Q:** Dear colleague, could you share the recorded outcome for O=C(NCCCNc1cc(-c2cn(-c3ccccc3)nc2-c2cccc(O)c2)ccn1)c1cccc(O)c1 when you have a moment?
**A:** inactive

**Q:** Dear colleague, could you share the recorded outcome for N[C@@H](CCCCNCC(=O)O)C(=O)O when you have a moment?
**A:** inactive

**Q:** Dear colleague, could you share the recorded outcome for O=C1C=C[C@]2(C[C@@H](c3cccc(C(F)(F)F)c3)O[C@@H](c3cccc(C(F)(F)F)c3)O2)O1 when you have a moment?
**A:** active
